Please provide measured Kd for the entries that follow.
target: T1, recombinant human Tau monomer, 2N4R isoform (amino acids 2-441) (human, UniProt P10636-8 2-441); assay: SPR, captured IgG, Tau monomer analyte, 1:1 model; fit-quality column: -
T1 construct: range 2-441; N-terminal His-tag removed with TEV protease; also called monomeric Tau
T1 sequence (P10636 other isoform, or with tags, fused parts or gaps limits assumed): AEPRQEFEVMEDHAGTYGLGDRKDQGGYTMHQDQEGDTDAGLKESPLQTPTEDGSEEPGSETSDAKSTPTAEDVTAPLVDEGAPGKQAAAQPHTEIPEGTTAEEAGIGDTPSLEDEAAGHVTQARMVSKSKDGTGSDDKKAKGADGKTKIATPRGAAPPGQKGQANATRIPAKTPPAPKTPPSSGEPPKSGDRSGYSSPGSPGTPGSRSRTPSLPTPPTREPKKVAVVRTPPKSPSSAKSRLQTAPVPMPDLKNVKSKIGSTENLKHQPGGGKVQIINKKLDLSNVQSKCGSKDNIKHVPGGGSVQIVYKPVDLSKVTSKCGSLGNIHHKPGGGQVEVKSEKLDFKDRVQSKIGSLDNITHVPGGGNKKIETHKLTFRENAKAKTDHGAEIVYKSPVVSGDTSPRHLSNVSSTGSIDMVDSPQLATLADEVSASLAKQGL
// return the numeric value with its unit appended

Asked: Return reported Kd; argument: hu37D3.v28.51 (antibody, V domains shown) VH: EVQLVESGGGLVQPGGSLRLSCAASGLIFRSYGMSWVRQAPGKGLEWVATINSGGTYTYYPDSVKGRFTISRDNSKNTLYLQMNSLRAEDTAVYYCANSYSGAMDYWGQGTLVTVSS VL: EDVLTQTPLSLPVTPGQPASISCRSSQSIVHSHGNTYFEWYLQKPGQSPQLLIYKVSNRFSGVPDRFSGSGSGTDFTLKISRVEAEDVGVYYCFQGSLVPWTFGQGTKVEIK
Given back: 35.6 nM

Asked: Return reported Kd; argument: hu37D3-H9.v5.6 (antibody, V domains shown) VH: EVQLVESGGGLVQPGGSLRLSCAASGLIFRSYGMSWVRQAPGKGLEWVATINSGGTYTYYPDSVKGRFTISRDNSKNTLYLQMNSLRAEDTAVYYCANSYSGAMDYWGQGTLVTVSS VL: EDVLTQTPLSLPVTPGQPASISCRSSQSIVHSAGNTYFEWYLQKPGQSPQLLIYKVSNRFSGVPDRFSGSGSGTDFTLKISRVEAEDVGVYYCFQGSLVPWTFGQGTKVEIK
Given back: 36.6 nM

Asked: Return reported Kd; argument: hu37D3-H9.v31.10 (antibody, V domains shown) VH: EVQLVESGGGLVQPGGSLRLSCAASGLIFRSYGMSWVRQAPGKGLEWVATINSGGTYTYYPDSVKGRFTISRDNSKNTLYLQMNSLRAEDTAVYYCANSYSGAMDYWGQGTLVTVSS VL: DDVLTQTPLSLPVTPGQPASISCRSSQSIVHSNANPYFEWYLQKPGQSPQLLIYKVSNRFSGVPDRFSGSGSGTDFTLKISRVEAEDVGVYYCFQGSLVPWTFGQGTKVEIK
Given back: 5.5 nM

Asked: Return reported Kd; argument: hu37D3-H9.v31.13 (antibody, V domains shown) VH: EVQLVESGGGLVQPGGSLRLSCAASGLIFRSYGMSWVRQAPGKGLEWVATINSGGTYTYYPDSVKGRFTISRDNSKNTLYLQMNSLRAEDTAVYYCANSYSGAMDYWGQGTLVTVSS VL: DDVLTQTPLSLPVTPGQPASISCRSSQSIVHSNANNYFEWYLQKPGQSPQLLIYKVSNRFSGVPDRFSGSGSGTDFTLKISRVEAEDVGVYYCFQGSLVPWTFGQGTKVEIK
Given back: 48.1 nM

Asked: Return reported Kd; argument: hu37D3.v28.A30 (antibody, V domains shown) VH: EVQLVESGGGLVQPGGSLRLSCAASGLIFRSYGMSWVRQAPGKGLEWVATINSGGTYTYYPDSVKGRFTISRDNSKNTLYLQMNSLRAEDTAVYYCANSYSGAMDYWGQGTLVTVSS VL: DVVMTQTPLSLPVTPGQPASISCRSSQSIVHSNGNTYLEWYLQKPGQSPQLLIYKVSNRFSGVPDRFSGSGSGTDFTLKISRVEAEDVGVYYCFQGSHVPWTFGQGTKVEIK
Given back: 34.4 nM
